Sourced from PubChem BioAssay AID2235

molecular target: Serine/threonine-protein phosphatase PP1-alpha catalytic subunit (Homo sapiens); test: inhibition of human PP1 catalytic subunit – biochemical, fluorescence, OMFP substrate, single point, counter-screen for PP5 inhibitor project, primary screen (AID 2235); details: purified PP1alpha, at 6.7 µM
Screen size: about 320,000 compounds; about 2,800 (0.88%) were called active.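 The calls were made as follows: active = inhibition above the mean inhibition of all tested compounds plus 3 SD, computed separately for each screening campaign (cut at about 15% in these data); inactive = the rest.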 The full list was thinned out, with actives kept by preference.
Respond with a class label; see YES = active, NO = inactive

Problem: What did this assay record as the result for C/C(CC(O)(/C=N/O)c1ccccc1)=N\O (stereo not given) ?
Solution: YES

Problem: Which result was noted for this compound in the test: C=CCn1c(=NC(=O)c2ccc(S(=O)(=O)N3CCCC3)cc2)sc2cc(NC(C)=O)ccc21
Solution: YES

Problem: So what was the verdict on CCC(=C/c1sc2ccc3ccccc3c2[n+]1C)/C=C1\Sc2ccc3ccccc3c2N1C in this test?
Solution: YES

Problem: GET /call?item= CCOC(=O)c1c(S(=O)(=O)Nc2ccc(CN3CCC(C)CC3)cc2)c(C)n(C)c1C returns the recorded outcome of this test.
Solution: NO

Problem: What outcome does the record of this test show for C=CCn1c(=NC(=O)c2cccs2)sc2cc(NC(C)=O)ccc21 ?
Solution: NO

====

target: Serine/threonine-protein phosphatase PP1-alpha catalytic subunit (Homo sapiens); assay: inhibition of human PP1 catalytic subunit – biochemical, fluorescence, OMFP substrate, single point, counter-screen for PP5 inhibitor project, primary screen (AID 2235); details: purified PP1alpha, at 6.7 µM, active compounds read high
About 2,800 (0.88%) of roughly 320,000 compounds were called active. This is one part of a sample in which actives are shown more often than they occur.
Exercise: state measured inhibition for each of the compounds provided.
The response must be a number in % with no trailing unit.

Problem: Could you share which inhibition value was measured for O=C(Nc1ccccc1N1CCN(C(=O)c2ccccc2)CC1)c1ccco1 ?
Solution: 0.05

Problem: Can you share its inhibition? I mean this compound: COc1ccc(Cn2nnc3c(=O)[nH]c(C4CCN(C(=O)c5ccccc5Cl)CC4)nc32)cc1
Solution: 1.01

Problem: Requested read-out: inhibition. Entry: O=C(COC(=O)c1ccccc1SCC(=O)N1CCCC1)Nc1ccccc1OC(F)F
Solution: -0.81

Problem: Could you tell me which inhibition is on file for CCOC(=O)c1cc(-c2ccc(F)cc2)n(CC(=O)NCc2ccccn2)c1C ?
Solution: -3.29

Problem: For the compound shown here, Cc1noc(/C=C/c2ccco2)c1S(=O)(=O)N1CCC(C(=O)N2CCc3ccccc32)CC1 , give the reported inhibition.
Solution: 15.4

Problem: What value of inhibition has been recorded for this entry: CCOC(=O)c1ccc[n+](CC(=O)Nc2ccccc2OC(F)F)c1
Solution: -3.16

Problem: Name the recorded inhibition for COc1cccc(NC(=O)C(Sc2nnnn2C)c2ccccc2)c1 (stereo not given) .
Solution: -7.84

Problem: Please look up its inhibition: Cc1cc(C)nc(-n2ncc3c2CC(c2ccc(C(C)C)cc2)CC3=O)n1 (stereo not given)
Solution: 15.3

Problem: I would be grateful if you could share the reported inhibition for CC(C)c1ccc(N(C(=O)c2ccco2)C(C(=O)NC2CCCC2)c2cccnc2)cc1 (stereo not given) .
Solution: 4.81

Problem: Entry Cc1noc(/C=C/c2ccco2)c1S(=O)(=O)N1CCC(C(=O)Nc2ccc(Cl)cn2)CC1 : reported inhibition = ?
Solution: 0.73

Problem: Give the measured inhibition of O=C(Cn1cc(-c2nnnn2-c2ccc(Cl)cc2)c(=O)c2ccccc21)c1ccccc1 .
Solution: 1.68

Problem: If you can, please state the reported inhibition value of FC(F)(F)c1nc(-c2ccccc2)ncc1-c1nnnn1-c1ccccc1 .
Solution: 0.75

Problem: Which measured inhibition value corresponds to Cc1ccc(-c2nc(SCC(=O)Nc3ccccc3OC(F)F)c3c(C)c(C(=O)O)sc3n2)cc1 ?
Solution: 52

Problem: // inhibition lookup, key: Clc1ccc(-n2nnnc2-c2cnc(-c3ccccn3)nc2-c2cccs2)cc1
Solution: 75.5

Problem: Which inhibition value belongs to Cc1ccc(Cn2nnc3c(=O)[nH]c(C4CCN(S(=O)(=O)/C=C/c5ccccc5)CC4)nc32)cc1 ?
Solution: 20.9

Problem: Bench note: what inhibition did CCc1sc(C(=O)N2CCN(CC(=O)Nc3cccc(F)c3)CC2)cc1C show?
Solution: -1.08

Problem: Name the reported inhibition value associated with the compound CC(C)n1ncc2c(C(=O)Nc3ccc(CC#N)cc3)cc(C3CC3)nc21
Solution: 0.77

Problem: inhibition for COc1ccc(-c2cc(C(F)(F)F)n3nc(C(=O)N4CCOCC4)c(Cl)c3n2)cc1 ?
Solution: -1.63

Problem: Quick one: inhibition of CS(=O)(=O)N(Cc1nc2sc3c(c2c(=O)[nH]1)CCCC3)C1CCCCC1 ?
Solution: 1.31

Problem: Which inhibition value belongs to Cc1cc(S(=O)(=O)NC2CCCC2)ccc1-n1cnnn1 ?
Solution: 3.65
